tested on: Mus musculus; experiment: Depletion of norepinephrine in mouse brain at 50 ug administered intracranially at 24 hrs interval on three successive days measured 24 hrs post last dose relative to control; type: functional
Overview of reported Activity across a group of compounds:
State the answer as a number, implicitly in %.

Data request: Item "CN(C)CCc1cc(O)c(O)cc1N" has what recorded Activity?
Data returned: 88

Data request: Item "Br.CNCCc1cc(O)c(O)cc1N" has what recorded Activity?
Data returned: 66

Data request: Item "NCCc1cc(O)c(O)cc1N" has what recorded Activity?
Data returned: 34

Please look at the following compound next.
Data request: Item "CC(C)NCCc1cc(O)c(O)cc1N" has what recorded Activity?
Data returned: 81
